The reported numbers originate from PubChem BioAssay (NCI).

System: MDA-MB-435 melanoma
assay.text: NCI-60 one-dose screen, 48 h (100 = growth as untreated, 0 = no growth, -100 = all killed)
experimental.context: 10 µM unless noted
The panel holds about 83,000 compounds, 20% with a hit somewhere; the sample as a whole holds those more often.
assay.endpoint: growth (%)
Please state the figure in %; there is no need to write the unit.

Exercise: What value of growth has been recorded for this entry: `Cc1c2cnccc2c(C)c2c1c1cc(C(=O)O)ccc1n2C`
Key: 5.58

Exercise: Again, but for `O=C(O)c1cc2ccccc2s1`
Key: 104

Exercise: Again, but for O=C1C=CC2(O)OC(c3ccccc3)CC(=O)C2=C1O (stereo not given)
Key: 87.7

Exercise: Again, but for `COc1nc2ccccc2cc1/C=[N+](\[O-])c1ccccc1`
Key: 42.2

Exercise: Again, but for `CC1(C)CCC[C@]23C(=O)O[C@](O)(C(=O)C4=C[C@@](C)(/C=C/CCCc5ccc6ccc7cccc8ccc5c6c78)CC[C@@]42O)[C@@H]13`
Key: -92.4

###

Tested on: NCI-H522 lung
assay.text: NCI-60 one-dose screen, 48 h (100 = growth as untreated, 0 = no growth, -100 = all killed)
experimental.context: 10 µM unless noted
Compounds without any hit were thinned out: in the full panel of roughly 83,000, 20% have a hit.
Classify on growth using bottom end = under -20%, midrange = from -20% up to 70%, top end = 70% and over

Exercise: Which class holds CN1C(=O)N(C)C2C1NN=c1s/c(=C\c3ccc(F)cc3)c(=O)n12 (stereo not given) ?
Key: midrange

Exercise: Again, but for `C#Cc1cccc(Nc2nc(Cl)nc3cc(NC(=O)CCl)ccc23)c1`
Key: bottom end

Exercise: Again, but for `Cc1ccccc1NC(=O)c1sc2nc3c(cc2c1N)CCCC3`
Key: midrange

Exercise: Again, but for CCOC(=O)C1=CCC(n2cc(F)c(=O)[nH]c2=O)O1 (stereo not given)
Key: top end

Exercise: Again, but for `CS(=O)(=O)Nc1cc(-c2ccc3ncnc(Nc4cccc(Cl)c4)c3c2)cnc1Cl`
Key: midrange

Exercise: Again, but for `C1=C2CCCC3=Cc4ccccc4OC23Oc2ccccc21`
Key: midrange

Exercise: Again, but for CC1=C([Se]CC(OC(=O)[C@@H](CO)NC(=O)OC(C)(C)C)C(=O)NCCCCCC(=O)OCc2ccccc2)C(=O)c2ccccc2C1=O (stereo not given in full)
Key: bottom end

Exercise: Again, but for `O=c1oc2ccccc2cc1-c1nn(-c2ccccc2)cc1/C=N/Nc1nc(-c2ccccc2)c(N=Nc2ccccc2)s1`
Key: midrange

Exercise: Again, but for `O=C1/C(=C/c2cccc(Br)c2)COc2ccc(O)c(O)c21`
Key: bottom end

Exercise: Again, but for `COc1ccc(CNc2ccc3nc(CCC4CCCCC4)[nH]c3c2)cc1`
Key: midrange

Exercise: Again, but for `Cc1cc2c(C(C)C)c(O)c(O)c(/C=N/O)c2c(O)c1-c1c(C)cc2c(C(C)C)c(O)c(O)c(/C=N/O)c2c1O`
Key: bottom end

Exercise: Again, but for `Nc1ncc(-c2ccc3ncnc(N4CCc5ccc(Cl)cc54)c3c2)cn1`
Key: midrange

Exercise: Again, but for C=C1CC[C@@H]2[C@](C)(COC(C)=O)[C@H](OC(C)=O)CC[C@@]2(C)[C@@H]1CC(Nc1ccc(S(=O)(=O)Nc2nccc(C)n2)cc1)C1=CCOC1=O (stereo not given in full)
Key: bottom end

Exercise: Again, but for `CN1CCN(Cc2ccc(NC(=O)c3cncc(C#Cc4cnc(N)c5ncccc45)c3)cc2Cl)CC1`
Key: top end

Exercise: Again, but for `c1ccc(-c2nc(N3CCNCC3)c3oc(-c4ccccc4)nc3n2)cc1`
Key: bottom end

Exercise: Again, but for `C#CCOc1cccc(-c2ncnc3cc(NC(=O)CCl)ccc23)c1`
Key: bottom end

Exercise: Again, but for `COc1nc2ccccc2cc1/C=C1/C=C(c2ccccc2)NC1=O`
Key: midrange

Exercise: Again, but for `CN1/C(=C/C=C/c2n(Cc3ccc4ccccc4c3)c(Cl)c(Cl)[n+]2Cc2ccc3ccccc3c2)Oc2ccccc21`
Key: bottom end

Exercise: Again, but for COc1cc2c(c(OC)c1OC)C(=O)CC(c1cccc(C(=O)Nc3ccc(Br)cc3)c1)O2 (stereo not given)
Key: midrange

Exercise: Again, but for `Cc1nc2ccccc2c(/C=C/c2ccc(Br)cc2)c1C(=O)/C=C/c1ccccc1`
Key: bottom end

Exercise: Again, but for `CCOC(=O)CCC(=O)P(=O)(O)O`
Key: top end

Exercise: Again, but for `COc1ccc(S(=O)(=O)Oc2ccc(-c3sc4cc(OS(=O)(=O)c5ccc(OC)cc5)ccc4c3C(=O)c3ccc(OCCN4CCCCC4)cc3)cc2)cc1`
Key: top end

Exercise: Again, but for `C=C(C)[C@@H]1CC[C@]2(COCCCNCCCN)CC[C@]3(C)[C@H](CC[C@@H]4[C@@]5(C)CC[C@H](OCCCN)C(C)(C)[C@@H]5CC[C@]43C)[C@@H]12`
Key: bottom end

Exercise: Again, but for Nc1ncnc2c1N=C(c1ccc([N+](=O)[O-])cc1)CC(c1ccc3c(c1)OCO3)N2 (stereo not given)
Key: top end

Exercise: Again, but for `CCOC(=O)/C(=C/c1ccc([N+](=O)[O-])cc1)C(=O)c1ccccc1`
Key: bottom end

Exercise: Again, but for `Cc1c2ccncc2c(C)c2c1c1ccccc1n2CCCCCC(=O)O`
Key: top end

Exercise: Again, but for `COc1cc(C(=O)/C=C/c2c(-c3cccs3)nc3sc(C)cn23)cc(OC)c1OC`
Key: midrange

Exercise: Again, but for `CCOC(=O)CSc1nc2sc3c(c2c(=O)n1-c1ccccc1)CCCCC3`
Key: top end

Exercise: Again, but for `CCCCC1=C(Br)C(=O)c2ncccc2C1=O`
Key: top end

Exercise: Again, but for `O=C1/C(=C/c2ccc(Br)cc2)COc2ccc(O)cc21`
Key: midrange

Exercise: Again, but for CC(Cc1cccc2ccccc12)C(N)=O (stereo not given)
Key: top end

Exercise: Again, but for `Cn1nc(-c2ccc(Cl)cc2)nc2c(=O)n(C)c(=O)nc1-2`
Key: bottom end

Exercise: Again, but for `CCOC(=O)c1cc(C(=O)c2cc(OC)cc(OC)c2)n2ncccc12`
Key: midrange

Exercise: Again, but for `CCCCC/C=C/CCC(=O)N[C@H]1[C@H](Oc2c3cc4cc2Oc2ccc(cc2Cl)[C@@H](O[C@@H]2O[C@H](CO)[C@@H](O)[C@H](O)[C@H]2NC(C)=O)[C@@H]2NC(=O)[C@H](NC(=O)[C@@H]4NC(=O)[C@H]4NC(=O)[C@@H](Cc5ccc(c(Cl)c5)O3)NC(=O)[C@@H](N)c3ccc(O)c(c3)Oc3cc(O)cc4c3)c3ccc(O)c(c3)-c3c(O[C@H]4O[C@H](CO)[C@@H](O)[C@H](O)[C@@H]4O)cc(O)cc3[C@H](C(=O)O)NC2=O)O[C@H](CO)[C@H](O)[C@@H]1O`
Key: top end

###

Tested on: PC-3 prostate
assay.text: NCI-60 one-dose screen, 48 h (100 = growth as untreated, 0 = no growth, -100 = all killed)
experimental.context: 10 µM unless noted
About 83,000 compounds went through this panel and 20% of them were active in at least one assay; those are over-represented in the sample as a whole.
assay.endpoint: growth (%)
Please state the figure in %; there is no need to write the unit.

Exercise: What value of growth has been recorded for this entry: `CC(C)c1nc(N(C)S(C)(=O)=O)nc(-c2ccc(F)cc2)c1/C=C/C(=O)C[C@@H](O)CC(=O)O`
Key: 97.6

Exercise: Again, but for `CN1CCN(Cc2ccc(NC(=O)c3cncc(C#Cc4c(N)ncc5cc(F)ccc45)c3)cc2C(F)(F)F)CC1`
Key: 37.9

Exercise: Again, but for `CNC(=O)c1cc(Oc2ccc3nc(NC(=O)NC(C)C)sc3c2)ccn1`
Key: 70.1

Exercise: Again, but for `Cc1nc2c(c(-c3ccccc3)n1)Cc1c(ccc3ccccc13)O2`
Key: 87.5

Exercise: Again, but for `Cn1cc(-c2nc(-c3c[nH]c4ccncc34)cs2)c2cc(F)ccc21`
Key: -73.1

Exercise: Again, but for `C#Cc1cccc(Nc2ncnc3ccc(-c4cnc(Cl)c(NS(C)(=O)=O)c4)cc23)c1`
Key: -7.01

Exercise: Again, but for `CC1(C)CC[C@]2(CO)CC[C@]3(C)C(=CC[C@@H]4[C@@]5(C)CCNCC(C)(C)[C@@H]5CC[C@]43C)[C@@H]2C1`
Key: 59

Exercise: Again, but for `CCOC(=O)c1cnc2sc(-c3ccc(OC)cc3)nc2c1Cl`
Key: 104

Exercise: Again, but for `O=C(O)c1cc2ccccc2s1`
Key: 96.4

Exercise: Again, but for `COC(=O)c1c(C(=O)OC)c2ccc3c4ncccc4ccc3n2c1C(=O)c1ccc(C)cc1`
Key: 86.6

Exercise: Again, but for `COC(=O)c1nc(-c2ccccc2)oc1S(=O)(=O)N1CCN(c2ccc(OC)cc2)CC1`
Key: 63.9

Exercise: Again, but for `CN1CCN(CCCNC(=O)c2c3c(n4ccccc24)C(=O)c2ncccc2C3=O)CC1`
Key: -1.89

Exercise: Again, but for `COc1cc(NC(=O)c2cncnc2Nc2ccc3c(ccn3Cc3cccc(F)c3)c2)cc(OC)c1`
Key: 43.5

Exercise: Again, but for `COc1ccc(-c2nc(SCCC(C)C)nc(N/N=C(/C)c3ccc(N)cc3)c2C#N)cc1`
Key: 96.5

Exercise: Again, but for `COc1cccc(C(=O)Nc2cccc(NC(=O)c3ccccn3)c2)c1`
Key: 98.3

Exercise: Again, but for `COc1cc(/C=C2\CN(S(=O)(=O)c3ccc(C)cc3)C/C(=C\c3cc(CN4CCCC4)c(O)c(OC)c3)C2=O)cc(CN2CCCC2)c1O`
Key: -20.2

Exercise: Again, but for `Nc1c(C(=O)c2ccc(Cl)cc2)sc(Nc2ccccc2)c1-c1nc2ccccc2s1`
Key: 10.3

Exercise: Again, but for `O=C(CN1C(=O)c2ccccc2S1(=O)=O)Nc1nc(-c2cc3ccccc3oc2=O)cs1`
Key: 97.7

Exercise: Again, but for `N#Cc1c(-c2ccc(F)cc2)cc(-c2cccc(Cl)c2)[nH]c1=O`
Key: 72.7
